Target: T1, RPtag(small) Nd2, Cd4 (Thermoanaerobacter tengcongensis)
T1 peptide: RhodamineB-KIPNFIPAELKLITK
Experiment: fluorescence anisotropy; 2 nM rhodamine Nd2Cd4, unlabeled RPtag large variant titrated; bar of Ka = 1/Kd, right axis
No end group written: not given here. *: point of attachment. RhodamineB = CCN(CC)c1ccc2c(-c3ccccc3C(=O)*)c3ccc(=[N+](CC)CC)cc-3oc2c1
readout kind: binding result

INSERT INTO measurements (binder, test_value) VALUES
  ('m270n (designed binder, also called RPtag(large) M270N) single chain: MGSSCHHHHHHSQDPNSSSMKEGKTIGLVISTLNNPFFVTLKNGAEEKAKELGYKIIVEDSQNDSSKELSNVEDLIQQKVDVLLINPVDSDAVVTAIKEANSKNIPVITIDRSANGGDVVSHIASDNVKGGEMAAEFIAKALKGKGNVVELEGIPGASAARDRGKGFDEAIAKYPDIKIVAKQAADFDRSKGLSVMENILQAQPKIDAVFAQNDEMALGAIKAIEAANRQGIIVVGFDGTEDALKAIKEGKMAATIAQQPALMGSLGVENADKYLK', 'binds'),
  ('h122f (designed binder, also called RPtag(large) H122F) single chain: MGSSCHHHHHHSQDPNSSSMKEGKTIGLVISTLNNPFFVTLKNGAEEKAKELGYKIIVEDSQNDSSKELSNVEDLIQQKVDVLLINPVDSDAVVTAIKEANSKNIPVITIDRSANGGDVVSFIASDNVKGGEMAAEFIAKALKGKGNVVELEGIPGASAARDRGKGFDEAIAKYPDIKIVAKQAADFDRSKGLSVMENILQAQPKIDAVFAQNDEMALGAIKAIEAANRQGIIVVGFDGTEDALKAIKEGKMAATIAQQPALMGSLGVEMADKYLK', 'binds');
